System: RAW-Dual
Experiment: NF-kB SEAP reporter activity, fold change vs agonist alone; higher = enhanced NF-kB activity
Conditions: library stock concentration (final ~1000-fold dilution): 10 mM; cytotoxicity flag (confluency mask): cytotoxic (confluency <70% of control); agonist: Imiquimod (TLR7) […]
Whole data set: some 2,900 compounds, median “NF-kB SEAP reporter activity, fold change vs agonist alone” near 0.99, cut for the highest 2% near 2.6. What follows is part of a selection rich in the highest values, with near analogues and random picks from the rest.
Reported Metric: NF-kB SEAP reporter activity

• O=C(CCCCCCC(=O)N/N=C/c1ccc(N(c2ccccc2)c2ccccc2)cc1)NO = 1.77
• O=C(CCCCCCNC(=O)c1cnc(N(c2ccccc2)c2ccccc2)nc1)NO = 1.12
• O=C(CCCCCCNC(=O)c1cnc(N(c2ccccc2)c2ccccc2Cl)nc1)NO = 1.51
• CC1(C)CCC2(NC(=O)C(C)(F)F)CCC3(C)C(C(=O)C=C4C5(C)C=C(C#N)C(=O)C(C)(C)C5CCC43C)C2C1 (centres undefined) = 0.14

* * *

System: RAW-Dual
Test: NF-kB SEAP reporter activity, fold change vs agonist alone; cytotoxicity flag (confluency mask): not cytotoxic; higher = enhanced NF-kB activity
Conditions: agonist: ODN 1826 (TLR9) 0.5 ug/mL
The full ranking holds about 2,900 compounds; the median of “NF-kB SEAP reporter activity, fold change vs agonist alone” is about 0.99, and the highest 2% start at about 2.6. The list comes from a sample in which the highest values are over-represented; it also holds close analogues and randomly drawn compounds.
NF-kB SEAP reporter activity overview
Reported Metric: NF-kB SEAP reporter activity

* O=c1nc(N2CCOCC2)oc2c(-c3cccc4c3sc3ccccc34)cccc12 (library stock concentration (final ~1000-fold dilution): 10 mM) | 1.08
* CC12CC(O)C3CC1(O[C@@H]1O[C@H](CO)[C@@H](O)[C@H](O)[C@H]1O)C3(COC(=O)c1ccccc1)C(=O)O2 (stereo partly specified) (library stock concentration (final ~1000-fold dilution): 10 mM) | 1.12
* CC1CCOC2Cn3cc(C(=O)NCc4ccc(F)cc4F)c(=O)c(O)c3C(=O)N12 (stereo unspecified) (library stock concentration (final ~1000-fold dilution): 10 mM) | 0.999
* CN1C2CCCC1CC(NC(=O)c1nn(C)c3ccccc13)C2.Cl (stereo unspecified) (library stock concentration (final ~1000-fold dilution): 10 mM water) | 1.06
* Cc1ccc(C(=O)N(CCCN)C(c2oc3cc(Cl)ccc3c(=O)c2Cc2ccccc2)C(C)C)cc1.Cl (stereo unspecified) (library stock concentration (final ~1000-fold dilution): 10 mM) | 0.953
* O=c1ccoc2cc(O)ccc12 (library stock concentration (final ~1000-fold dilution): 10 mM) | 1.15
* C=C1CCCC2(C)C=C3OC(=O)C(C)=C3CC12 (stereo unspecified) (library stock concentration (final ~1000-fold dilution): 10 mM) | 1.06
* CC(NC(=O)c1ncnc(N)c1Cl)c1ncc(C(=O)Nc2cc(C(F)(F)F)c(Cl)cn2)s1 (stereo unspecified) (library stock concentration (final ~1000-fold dilution): 10 mM) | 0.495
* CC1=NN(c2ccc(C)c(C)c2)C(=O)/C1=N\Nc1cccc(-c2cccc(C(=O)O)c2)c1O.NCCO.NCCO (library stock concentration (final ~1000-fold dilution): 10 mM) | 1.31
* Oc1cc(CNC(=S)/C=C/c2cc(O)c(O)c(Br)c2)cc(O)c1O (library stock concentration (final ~1000-fold dilution): 10 mM) | 2.77
* CS(=O)(=O)O.O=C(OC1CC2CC3CC(C1)N2CC3=O)c1c[nH]c2ccccc12 (stereo unspecified) (library stock concentration (final ~1000-fold dilution): 10 mM) | 0.571

* * *

System: RAW-Dual
Experiment: NF-kB SEAP reporter activity, fold change vs agonist alone; cytotoxicity flag (confluency mask): not cytotoxic; higher = enhanced NF-kB activity
Conditions: agonist: Pam2CSK4 (TLR2/6) 0.1 ug/mL
Over roughly 2,900 compounds, “NF-kB SEAP reporter activity, fold change vs agonist alone” has its median near 0.99; the highest 2% begin near 2.6. The list comes from a sample in which the highest values are over-represented; it also holds close analogues and randomly drawn compounds.
Response key: Met means NF-kB SEAP reporter activity >= 1; Not met means NF-kB SEAP reporter activity < 1.

- CN1CCN(C(c2ccccc2)c2ccccc2)CC1.Cl.Cl (library stock concentration (final ~1000-fold dilution): 10 mM): Met
- Nc1cc(C(F)(F)F)c(-c2cc(N3CCOCC3)nc(N3CCOCC3)n2)cn1 (library stock concentration (final ~1000-fold dilution): 10 mM): Met
- CCc1c(N(CC)C2CCOCC2)cc2oc(C3CCN(C(C)C)CC3)cc2c1C(=O)NCc1c(C)cc(C)[nH]c1=O (library stock concentration (final ~1000-fold dilution): 10 mM): Met
- CC(C)=CCC[C@](C)(O)[C@H]1CC[C@]2(C)[C@@H]3CCC4C(C)(C)[C@@H](O)CC[C@]4(C)[C@H]3C[C@@H](O)[C@@]12C (stereo not given in full) (library stock concentration (final ~1000-fold dilution): 10 mM): Not met
- FC(F)c1nc2ccccc2n1-c1nc(N2CCOCC2)nc(N2CCOCC2)n1 (library stock concentration (final ~1000-fold dilution): 10 mM): Not met
- O=C(O)CC[C@@H](O)C(=O)O (library stock concentration (final ~1000-fold dilution): 10 mM water): Met
- CC(C)CN(CC(O)C(Cc1ccccc1)NC(=O)OC1CCOC1)S(=O)(=O)c1ccc(N)cc1 (stereo not given) (library stock concentration (final ~1000-fold dilution): 10 mM): Met
- COc1nc(N)nc2c1ncn2C1OC(CO)C(O)C1O (stereo not given) (library stock concentration (final ~1000-fold dilution): 10 mM): Met
- CC(C)(C)c1[nH]cnc1C=c1[nH]c(=O)c(=Cc2ccccc2)[nH]c1=O (library stock concentration (final ~1000-fold dilution): 10 mM): Met
- N=C(N)NCCCC1NC(=O)C(CCCCN)NC(=O)C(Cc2ccccc2)NC(=O)C(CC(=O)O)NC(=O)CNC1=O.O=C(O)C(F)(F)F (stereo not given) (library stock concentration (final ~1000-fold dilution): 10 mM): Met
- CCOC(=O)C(CCc1ccccc1)NC1CCc2ccccc2N(CC(=O)O)C1=O.Cl (stereo not given) (library stock concentration (final ~1000-fold dilution): 10 mM): Met
- COc1cc(C(=O)O)ccc1O (library stock concentration (final ~1000-fold dilution): 10 mM): Met
- CC1CN(CC(Cc2ccccc2)C(=O)NCC(=O)O)CCC1(C)c1cccc(O)c1 (stereo not given) (library stock concentration (final ~1000-fold dilution): 10 mM): Not met
- COC1CCC(N2C(=O)CNc3ncc(-c4ccc(C(C)(C)O)nc4)nc32)CC1 (stereo not given) (library stock concentration (final ~1000-fold dilution): 10 mM): Not met
- C/C=C1/C2C=C(C)CC1(N)c1ccc(=O)[nH]c1C2 (stereo not given) (library stock concentration (final ~1000-fold dilution): 2 mM): Met
- NS(=O)(=O)NCCNc1nonc1C(=Nc1ccc(F)c(Br)c1)NO (library stock concentration (final ~1000-fold dilution): 10 mM): Not met
- C[C@@H]1O[C@@H](O[C@H]2[C@H](OC(=O)[C@]34CCC(C)(C)C[C@H]3C3=CC[C@@H]5[C@@]6(C)C[C@H](O)[C@H](O[C@@H]7O[C@H](CO)[C@@H](O)[C@H](O)[C@H]7O)[C@@](C)(CO)[C@@H]6CC[C@@]5(C)[C@]3(C)CC4)O[C@H](CO)[C@@H](O)[C@@H]2O)[C@H](O)[C@H](O)[C@H]1O[C@@H]1OC[C@@H](O)[C@H](O)[C@H]1O (library stock concentration (final ~1000-fold dilution): 10 mM): Met
- COc1ccc(CCC(=O)N(c2nccc3ccccc23)C2CCCNC2)cc1 (stereo not given) (library stock concentration (final ~1000-fold dilution): 10 mM): Met

* * *

Test system: RAW-Dual
Assay: NF-kB SEAP reporter activity, fold change vs agonist alone; cytotoxicity flag (confluency mask): not cytotoxic; higher = enhanced NF-kB activity
Conditions: agonist: Pam3CSK4 (TLR2/1) 0.1 ug/mL
Over roughly 2,900 compounds, “NF-kB SEAP reporter activity, fold change vs agonist alone” has its median near 0.99; the highest 2% begin near 2.6. What follows is part of a selection rich in the highest values, with near analogues and random picks from the rest.
Listing of recorded NF-kB SEAP reporter activity by entry.
Reported Metric: NF-kB SEAP reporter activity

- CCCN1CCCCC1C(=O)Nc1c(C)cccc1C (stereo unspecified) (library stock concentration (final ~1000-fold dilution): 10 mM): 1.06
- C=C(CC(=O)OCCCCCCCC)C(=O)O (library stock concentration (final ~1000-fold dilution): 10 mM): 0.645
- COc1ccc2cccc(CCNC(C)=O)c2c1 (library stock concentration (final ~1000-fold dilution): 10 mM): 1.19
- Cc1ccc(S(=O)(=O)O)cc1.NC(=O)c1cccc2cn(-c3ccc(C4CCCNC4)cc3)nc12 (stereo unspecified) (library stock concentration (final ~1000-fold dilution): 10 mM): 1.1
- NS(=O)(=O)c1ccc(NC(=S)N2CCN(C/C=C/c3ccccc3)CC2)cc1 (library stock concentration (final ~1000-fold dilution): 10 mM): 0.825
- COc1ccc(S(=O)(=O)Nc2cc(-c3c(O)ccc4ccccc34)c(O)c3ccccc23)cc1 (library stock concentration (final ~1000-fold dilution): 10 mM): 1.38
